Tested on: KYSE-410 (Esophageal Squamous Cell Carcinoma)
Assay: Bliss excess, mean over the matrix (fraction); higher = more synergy
outcome_measure: Bliss excess

CCN(CCO)CCCOc1ccc2c(Nc3cc(CC(=O)Nc4cccc(F)c4)[nH]n3)ncnc2c1 [AZD2811] + O=C(c1cc(Cc2n[nH]c(=O)c3ccccc23)ccc1F)N1CCN(C(=O)C2CC2)CC1 [Olaparib] (first compound max 1 µM, 7x7, partner max 10 µM); -0.0308
COc1cccc(OCCCN)c1-c1cc(Nc2cnc(C#N)cn2)n[nH]1 [Prexasertib] + C[C@@H]1COCCN1C2=NC(=NC(=C2)C3(CC3)[S@](=N)(=O)C)C4=C5C=CNC5=NC=C4 [AZD6738] (first compound max 1 µM, 7x7, partner max 10 µM); -0.0548
Cc1c2c(nn1C)CSCc1cc(n(C)n1)CSc1cc(c3ccccc3c1)OCCCc1c(C(=O)O)n(C)c3c-2c(Cl)ccc13 [AZD5991] + CCN(CCO)CCCOc1ccc2c(Nc3cc(CC(=O)Nc4cccc(F)c4)[nH]n3)ncnc2c1 [AZD2811] (first compound max 1 µM, 7x7, partner max 1 µM); 0.045
COc1nnc2ccc(N3CCC(c4ccc(OCCN5CCN(C)C(=O)[C@H]5C)cc4)CC3)nn12 [AZD5153] + Cc1c2c(nn1C)CSCc1cc(n(C)n1)CSc1cc(c3ccccc3c1)OCCCc1c(C(=O)O)n(C)c3c-2c(Cl)ccc13 [AZD5991] (first compound max 1 µM, 7x7, partner max 1 µM); 0.0001
CN(CCO)CC[C@H](CSc1ccccc1)Nc1ccc(S(=O)(=O)NC(=O)c2ccc(N3CCC([C@@H](O)c4ccccc4-c4ccc(Cl)cc4)CC3)cc2)cc1S(=O)(=O)C(F)(F)F [AZD4320] + CCN(CCO)CCCOc1ccc2c(Nc3cc(CC(=O)Nc4cccc(F)c4)[nH]n3)ncnc2c1 [AZD2811] (first compound max 1 µM, 7x7, partner max 1 µM); -0.0437
C=CCn1c(=O)c2cnc(Nc3ccc(N4CCN(C)CC4)cc3)nc2n1-c1cccc(C(C)(C)O)n1 [AZD1775] + C[C@@H]1COCCN1C2=NC(=NC(=C2)C3(CC3)[S@](=N)(=O)C)C4=C5C=CNC5=NC=C4 [AZD6738] (first compound max 1 µM, partner max 10 µM); -0.0061
Cc1c2c(nn1C)CSCc1cc(n(C)n1)CSc1cc(c3ccccc3c1)OCCCc1c(C(=O)O)n(C)c3c-2c(Cl)ccc13 [AZD5991] + Cc1cc2ncnn2cc1Nc1ncc2c(n1)n(C1CCOCC1)c(=O)n2C [AZD7648] (first compound max 1 µM, 7x7, partner max 10 µM); -0.0184

###

Tested on: Hs-633T (Other Solid Carcinomas)
Assay: combination Emax (second highest fraction inhibited in the dose matrix, 72 h); higher = more inhibition; extreme values may be limits of the assay
outcome_measure: combination Emax

NC1(C(=O)N[C@@H](CCO)c2ccc(Cl)cc2)CCN(c2ncnc3[nH]ccc23)CC1 [Capivasertib] + C[C@@H]1COCCN1C2=NC(=NC(=C2)C3(CC3)[S@](=N)(=O)C)C4=C5C=CNC5=NC=C4 [AZD6738] (first compound max 10 µM, 7x7, partner max 10 µM); 0.894
COc1nnc2ccc(N3CCC(c4ccc(OCCN5CCN(C)C(=O)[C@H]5C)cc4)CC3)nn12 [AZD5153] + C=CCn1c(=O)c2cnc(Nc3ccc(N4CCN(C)CC4)cc3)nc2n1-c1cccc(C(C)(C)O)n1 [AZD1775] (first compound max 1 µM, partner max 1 µM); 0.798
CN(CCO)CC[C@H](CSc1ccccc1)Nc1ccc(S(=O)(=O)NC(=O)c2ccc(N3CCC([C@@H](O)c4ccccc4-c4ccc(Cl)cc4)CC3)cc2)cc1S(=O)(=O)C(F)(F)F [AZD4320] + CS(=O)(=O)CCNCc1ccc(-c2ccc3ncnc(Nc4ccc(OCc5cccc(F)c5)c(Cl)c4)c3c2)o1 [Lapatinib] (first compound max 1 µM, 7x7, partner max 10 µM); 0.452

###

Test system: LU-139 (Small Cell Lung Carcinoma)
Assay: combination Emax (second highest fraction inhibited in the dose matrix, 72 h); higher = more inhibition; extreme values may be limits of the assay
Items are presented alongside their recorded combination Emax.
outcome_measure: combination Emax

Cc1nc(Nc2ncc(C(=O)Nc3c(C)cccc3Cl)s2)cc(N2CCN(CCO)CC2)n1 [Dasatinib] + CC(=O)Nc1cccc(-n2c(=O)n(C3CC3)c(=O)c3c(Nc4ccc(I)cc4F)n(C)c(=O)c(C)c32)c1 [Trametinib] (first compound max 2 µM, 7x7, partner max 1 µM); 0.0497
C[C@@H](Oc1cc(-c2cnn(C3CCNCC3)c2)cnc1N)c1c(Cl)ccc(F)c1Cl [Crizotinib] + CC1=C(C(=CC=C1)Cl)NC(=O)C2=CN=C(S2)NC3=CC(=NC(=N3)C)N4CCN(CC4)CCO [Dasatinib] (first compound max 10 µM, 7x7, partner max 2 µM); 0.688

###

Test system: NCI-H69 (Small Cell Lung Carcinoma)
Assay: combination Emax (second highest fraction inhibited in the dose matrix, 72 h); higher = more inhibition; extreme values may be limits of the assay
Items are presented alongside their recorded combination Emax.
outcome_measure: combination Emax

Cc1cc2ncnn2cc1Nc1ncc2c(n1)n(C1CCOCC1)c(=O)n2C [AZD7648] + CCN(CCO)CCCOc1ccc2c(Nc3cc(CC(=O)Nc4cccc(F)c4)[nH]n3)ncnc2c1 [AZD2811] (first compound max 10 µM, 7x7, partner max 1 µM); 0.743
C[C@@H](c1ccc2nccn2c1)n1nnc2ncc(-c3cnn(C)c3)nc21 [Savolitinib] + CC1(C)CCC(CN2CCN(c3ccc(C(=O)NS(=O)(=O)c4ccc(NCC5CCOCC5)c([N+](=O)[O-])c4)c(Oc4cnc5[nH]ccc5c4)c3)CC2)=C(c2ccc(Cl)cc2)C1 [Venetoclax] (first compound max 1 µM, 7x7, partner max 1 µM); 0.372

###

System: RT-112 (Bladder Carcinoma)
Test: combination Emax (second highest fraction inhibited in the dose matrix, 72 h); higher = more inhibition; extreme values may be limits of the assay
outcome_measure: combination Emax

C[C@@H](Oc1cc(-c2cnn(C3CCNCC3)c2)cnc1N)c1c(Cl)ccc(F)c1Cl [Crizotinib] + Cn1cnc2c(F)c(Nc3ccc(Br)cc3Cl)c(C(=O)NOCCO)cc21 [Selumetinib] (first compound max 10 µM, 7x7, partner max 10 µM); 0.819
Cc1cc2ncnn2cc1Nc1ncc2c(n1)n(C1CCOCC1)c(=O)n2C [AZD7648] + C[C@@H]1COCCN1C2=NC(=NC(=C2)C3(CC3)[S@](=N)(=O)C)C4=C5C=CNC5=NC=C4 [AZD6738] (first compound max 10 µM, 7x7, partner max 10 µM); 0.93
C[C@@H](Nc1cc(F)cc(F)c1)c1cc(C(=O)N(C)C)cc2c(=O)cc(N3CCOCC3)oc12 [AZD8186] + CC(=O)c1c(C)c2cnc(Nc3ccc(N4CCNCC4)cn3)nc2n(C2CCCC2)c1=O [Palbociclib] (first compound max 10 µM, 7x7, partner max 10 µM); 0.352
CC1(C)CCC(CN2CCN(c3ccc(C(=O)NS(=O)(=O)c4ccc(NCC5CCOCC5)c([N+](=O)[O-])c4)c(Oc4cnc5[nH]ccc5c4)c3)CC2)=C(c2ccc(Cl)cc2)C1 [Venetoclax] + C[C@@H]1COCCN1C2=NC(=NC(=C2)C3(CC3)[S@](=N)(=O)C)C4=C5C=CNC5=NC=C4 [AZD6738] (first compound max 1 µM, 7x7, partner max 10 µM); 0.842
CN(CCO)CC[C@H](CSc1ccccc1)Nc1ccc(S(=O)(=O)NC(=O)c2ccc(N3CCC([C@@H](O)c4ccccc4-c4ccc(Cl)cc4)CC3)cc2)cc1S(=O)(=O)C(F)(F)F [AZD4320] + CN(C)CCCOc1ccc(-c2ccc3ncc4c(c3c2)n(C2CCOCC2)c(=O)n4C)cn1 [AZD0156] (first compound max 1 µM, 7x7, partner max 1 µM); 0.188
Cc1cc2ncnn2cc1Nc1ncc2c(n1)n(C1CCOCC1)c(=O)n2C [AZD7648] + COc1cc([C@@H]2c3cc4c(cc3[C@@H](O[C@@H]3O[C@@H]5CO[C@@H](C)O[C@H]5[C@H](O)[C@H]3O)[C@H]3COC(=O)[C@H]23)OCO4)cc(OC)c1O [Etoposide] (first compound max 10 µM, 7x7, partner max 10 µM); 0.798
Cc1cc2ncnn2cc1Nc1ncc2c(n1)n(C1CCOCC1)c(=O)n2C [AZD7648] + O=C(c1cc(Cc2n[nH]c(=O)c3ccccc23)ccc1F)N1CCN(C(=O)C2CC2)CC1 [Olaparib] (first compound max 10 µM, 7x7, partner max 10 µM); 0.143

###

System: 8305C (Thyroid Gland Carcinoma)
Experiment: Bliss excess, mean over the matrix (fraction); higher = more synergy
outcome_measure: Bliss excess

Cn1cnc2c(F)c(Nc3ccc(Br)cc3Cl)c(C(=O)NOCCO)cc21 [Selumetinib] + C=CCn1c(=O)c2cnc(Nc3ccc(N4CCN(C)CC4)cc3)nc2n1-c1cccc(C(C)(C)O)n1 [AZD1775] (first compound max 10 µM, partner max 1 µM); -0.0383
CS(=O)(=O)CCNCc1ccc(-c2ccc3ncnc(Nc4ccc(OCc5cccc(F)c5)c(Cl)c4)c3c2)o1 [Lapatinib] + NC1(c2ccc(-c3nc4ccn5c(=O)[nH]nc5c4cc3-c3ccccc3)cc2)CCC1 [MK-2206] (first compound max 10 µM, 7x7, partner max 10 µM); 0.118
